experiment: Half life in Balb/c mouse at 2 mg/kg, iv by LC-MS/MS analysis; assay type: ADME, organism-based; conditions: in vivo
readout_label: half-life (h)
# output: bare number, implied unit h

Asked: Requested field: half-life. Item: CC(C)(C)N1CCN(C(=O)c2ccnc(Nc3cc4[nH]c(-c5cccc(C(F)(F)F)c5)nc4cn3)c2)CC1
Given back: 19

---

test: Tmax in Balb/c mouse at 20 mg/kg, po by LC-MS/MS analysis; type: ADME, organism-based; details: in vivo
readout_label: Tmax

Asked: Requested field: Tmax. Item: CC(C)(C)N1CCN(C(=O)c2ccnc(Nc3cc4[nH]c(-c5cccc(C(F)(F)F)c5)nc4cn3)c2)CC1
Given back: 30 min

---

experiment: Oral bioavailability in Balb/c mouse at 20 mg/kg by LC-MS/MS analysis; format: ADME, organism-based; settings: in vivo
readout_label: bioavailability
Respond with a number, then the unit of measure.

Asked: Requested field: bioavailability. Item: CC(C)(C)N1CCN(C(=O)c2ccnc(Nc3cc4[nH]c(-c5cccc(C(F)(F)F)c5)nc4cn3)c2)CC1
Given back: 2%

---

experiment: Metabolic stability in human liver microsomes assessed as parent compound remaining at 0.1 uM after 60 mins in presence of NADPH by LC-MS/MS analysis; format: ADME, Microsome; conditions: read-out: Stability
readout_label: remaining at 1 h, 0.1 µM (%)
# output: bare number, implied unit %

Asked: Requested field: remaining at 1 h, 0.1 µM. Item: Fc1ccc(-c2nc3cnc(Nc4ccc(N5CCN(CC6CC6)CC5)cn4)cc3[nH]2)cc1F
Given back: 7

---

test: Metabolic stability in rat liver microsomes assessed as parent compound remaining at 0.1 uM after 60 mins in presence of NADPH by LC-MS/MS analysis; type: ADME, Microsome; conditions: read-out: Stability
readout_label: remaining at 1 h, 0.1 µM (%)
# output: bare number, implied unit %

Illustrative cases are given below, each with its answer.
Asked: Requested field: remaining at 1 h, 0.1 µM. Item: FC1(F)CC(c2nc3cnc(Nc4ccc(N5CCN(CC6CC6)CC5)cn4)cc3[nH]2)C1
Given back: 52

Asked: Requested field: remaining at 1 h, 0.1 µM. Item: FC(F)(F)c1ccc(-c2nc3cnc(Nc4ccc(N5CCN(CC6CC6)CC5)cn4)cc3[nH]2)cn1
Given back: 55

Asked: Requested field: remaining at 1 h, 0.1 µM. Item: Fc1ccc(-c2nc3cnc(Nc4ccc(C5CCNCC5)cn4)cc3[nH]2)cc1F
Given back: 97

Asked: Requested field: remaining at 1 h, 0.1 µM. Item: O=C(c1ccnc(Nc2cc3[nH]c(-c4ccc(F)c(C(F)(F)F)c4)nc3cn2)c1)N1CCN(C2CC2)CC1
Given back: 53

Asked: Requested field: remaining at 1 h, 0.1 µM. Item: Fc1ccc(Nc2cc3[nH]c(Nc4ccc(N5CCNCC5)cn4)nc3cn2)cc1C(F)(F)F
Given back: 59

Asked: Requested field: remaining at 1 h, 0.1 µM. Item: Fc1ccc(Nc2cc3[nH]c(Nc4cc(N5CCNCC5)ccn4)nc3cn2)cc1C(F)(F)F
Given back: 73

Others:
Asked: Requested field: remaining at 1 h, 0.1 µM. Item: CC(C)(C)N1CCN(C(=O)c2ccnc(Nc3cc4[nH]c(-c5cccc(C(F)(F)F)c5)nc4cn3)c2)CC1
Given back: 48

Asked: Requested field: remaining at 1 h, 0.1 µM. Item: Fc1ccc(-c2nc3cnc(Nc4ccc(N5CCN(CC6CC6)CC5)cn4)cc3[nH]2)cc1C(F)(F)F
Given back: 36

Asked: Requested field: remaining at 1 h, 0.1 µM. Item: Fc1ccc(-c2nc3cnc(Nc4ccc(N5CCN(CC6CC6)CC5)cn4)cc3[nH]2)cc1F
Given back: 9

Asked: Requested field: remaining at 1 h, 0.1 µM. Item: CC(C)CN1CCN(c2ccc(Nc3cc4[nH]c(C5CCC(F)(F)CC5)nc4cn3)nc2)CC1
Given back: 64

Asked: Requested field: remaining at 1 h, 0.1 µM. Item: Fc1ccc(-c2nc3cnc(Nc4ccc(N5CCNCC5)cn4)cc3[nH]2)cc1F
Given back: 73
